Hello, the source for this data is patent US20260167641A1, in case you need it.

# protocol_notes: Stability evaluation under influencing factors
# Assay type: physicochemical
# study_conditions: RH 75%, 30 days
# Procedure: Appropriate amounts of crystal forms I, II. III, and the compound of formula (I) were taken and exposed to conditions of 60° C., RH (relative humidity) 92.5%, RH (relative humidity) 75%, and light, respectively. The samples were collected on day 30, and the purity of the samples and changes in XRPD were examined according to the 2020 edition of the Chinese Pharmacopoeia.
readout_kind: Crystal form identification (XRPD)

molecule="Nc1nccn2c(C34CCC(NC(=O)CN5CCOCC5)(CC3)C4)nc(-c3ccc(C(=O)Nc4cc(C(F)(F)F)ccn4)cc3)c12 (single isomer, unassigned) [Crystal form I]" result="Consistent with day 0"
molecule="Nc1nccn2c(C34CCC(NC(=O)CN5CCOCC5)(CC3)C4)nc(-c3ccc(C(=O)Nc4cc(C(F)(F)F)ccn4)cc3)c12 (single isomer, unassigned) [Crystal form II]" result="Consistent with day 0"
molecule="Nc1nccn2c(C34CCC(NC(=O)CN5CCOCC5)(CC3)C4)nc(-c3ccc(C(=O)Nc4cc(C(F)(F)F)ccn4)cc3)c12 [Compound of formula (I)]" result="Consistent with day 0"

* * *

# protocol_notes: Stability evaluation under influencing factors
# Type: physicochemical
# study_conditions: 60° C., 30 days
# Experimental: Appropriate amounts of crystal forms I, II. III, and the compound of formula (I) were taken and exposed to conditions of 60° C., RH (relative humidity) 92.5%, RH (relative humidity) 75%, and light, respectively. The samples were collected on day 30, and the purity of the samples and changes in XRPD were examined according to the 2020 edition of the Chinese Pharmacopoeia.
readout_kind: Purity % (%)

molecule="Nc1nccn2c(C34CCC(NC(=O)CN5CCOCC5)(CC3)C4)nc(-c3ccc(C(=O)Nc4cc(C(F)(F)F)ccn4)cc3)c12 (single isomer, unassigned) [Crystal form I]" readout_kind="Purity %" readout_number=98.7
molecule="Nc1nccn2c(C34CCC(NC(=O)CN5CCOCC5)(CC3)C4)nc(-c3ccc(C(=O)Nc4cc(C(F)(F)F)ccn4)cc3)c12 (single isomer, unassigned) [Crystal form II]" readout_kind="Purity %" readout_number=99.3
molecule="Nc1nccn2c(C34CCC(NC(=O)CN5CCOCC5)(CC3)C4)nc(-c3ccc(C(=O)Nc4cc(C(F)(F)F)ccn4)cc3)c12 [Compound of formula (I)]" readout_kind="Purity %" readout_number=99.5
molecule="Nc1nccn2c(C34CCC(NC(=O)CN5CCOCC5)(CC3)C4)nc(-c3ccc(C(=O)Nc4cc(C(F)(F)F)ccn4)cc3)c12 (single isomer, unassigned) [Crystal form III]" readout_kind="Purity %" readout_number=94.8

* * *

# protocol_notes: Stability evaluation under influencing factors
# Format: physicochemical
# study_conditions: Light exposure, 30 days
readout_kind: Purity % (%)

compound="Nc1nccn2c(C34CCC(NC(=O)CN5CCOCC5)(CC3)C4)nc(-c3ccc(C(=O)Nc4cc(C(F)(F)F)ccn4)cc3)c12 (single isomer, unassigned) [Crystal form III]" unit_symbol=% readout_number=88.0
compound="Nc1nccn2c(C34CCC(NC(=O)CN5CCOCC5)(CC3)C4)nc(-c3ccc(C(=O)Nc4cc(C(F)(F)F)ccn4)cc3)c12 (single isomer, unassigned) [Crystal form II]" unit_symbol=% readout_number=98.8
compound="Nc1nccn2c(C34CCC(NC(=O)CN5CCOCC5)(CC3)C4)nc(-c3ccc(C(=O)Nc4cc(C(F)(F)F)ccn4)cc3)c12 (single isomer, unassigned) [Crystal form I]" unit_symbol=% readout_number=98.1
compound="Nc1nccn2c(C34CCC(NC(=O)CN5CCOCC5)(CC3)C4)nc(-c3ccc(C(=O)Nc4cc(C(F)(F)F)ccn4)cc3)c12 [Compound of formula (I)]" unit_symbol=% readout_number=88.2

* * *

# protocol_notes: Stability evaluation under influencing factors
# Format: physicochemical
# study_conditions: RH 92.5%, 30 days
readout_kind: Crystal form identification (XRPD)

molecule="Nc1nccn2c(C34CCC(NC(=O)CN5CCOCC5)(CC3)C4)nc(-c3ccc(C(=O)Nc4cc(C(F)(F)F)ccn4)cc3)c12 (single isomer, unassigned) [Crystal form II]" result="Consistent with day 0"
molecule="Nc1nccn2c(C34CCC(NC(=O)CN5CCOCC5)(CC3)C4)nc(-c3ccc(C(=O)Nc4cc(C(F)(F)F)ccn4)cc3)c12 (single isomer, unassigned) [Crystal form I]" result="Consistent with day 0"
molecule="Nc1nccn2c(C34CCC(NC(=O)CN5CCOCC5)(CC3)C4)nc(-c3ccc(C(=O)Nc4cc(C(F)(F)F)ccn4)cc3)c12 [Compound of formula (I)]" result="Consistent with day 0"

* * *

# protocol_notes: Stability evaluation under influencing factors
# Format: physicochemical
# study_conditions: 0 day
readout_kind: Purity % (%)

compound="Nc1nccn2c(C34CCC(NC(=O)CN5CCOCC5)(CC3)C4)nc(-c3ccc(C(=O)Nc4cc(C(F)(F)F)ccn4)cc3)c12 (single isomer, unassigned) [Crystal form III]" readout_number=99.0
compound="Nc1nccn2c(C34CCC(NC(=O)CN5CCOCC5)(CC3)C4)nc(-c3ccc(C(=O)Nc4cc(C(F)(F)F)ccn4)cc3)c12 (single isomer, unassigned) [Crystal form II]" readout_number=99.3
compound="Nc1nccn2c(C34CCC(NC(=O)CN5CCOCC5)(CC3)C4)nc(-c3ccc(C(=O)Nc4cc(C(F)(F)F)ccn4)cc3)c12 (single isomer, unassigned) [Crystal form I]" readout_number=98.6
compound="Nc1nccn2c(C34CCC(NC(=O)CN5CCOCC5)(CC3)C4)nc(-c3ccc(C(=O)Nc4cc(C(F)(F)F)ccn4)cc3)c12 [Compound of formula (I)]" readout_number=99.7
